system: DNA topoisomerase 2-alpha (Homo sapiens)
test.method.notes: Inhibition of wild type human topoisomerase-2alpha expressed in Saccharomyces cerevisiae JEL1deltatop1 assessed as inhibition of supercoiled DNA relaxation at 100 to 200 uM using negatively supercoiled pBRDNA as substrate incubated for 15 mins in presence of ATP by gel electrophoresis
experimental.context: dose microM 100-200, time 15.0 min
Active and inactive are the calls of the source. No cut-off for these calls is given here.
In this exercise, the only acceptable responses are active, inactive

A selection of reference data follows.
{"line.notation": "COc1cc([C@@H]2c3cc4c(cc3[C@H](O)[C@H]3COC(=O)[C@H]23)OCO4)c(Br)c(OC)c1OC", "group": "inactive"}
{"line.notation": "COc1cc([C@@H]2c3cc4c(cc3[C@H](O)[C@H]3COC(=O)[C@H]23)OCO4)c(Cl)c(OC)c1OC", "group": "inactive"}

Hey, what did the test say about COc1c(Cl)c([C@@H]2c3cc4c(cc3[C@H](O)[C@H]3COC(=O)[C@H]23)OCO4)c(Cl)c(OC)c1OC ? active

Origin of the recorded values: ChEMBL document CHEMBL4699563
